# target-entity: SARS-CoV-2 RBD (RBD-2) (SARS-CoV-2)
# assay-protocol: SPR, Fc-captured IgG
attribute-measured: Kd (µM)
Numbers only, in µM.

The following binders have reported results that may help.
# binder, recorded-number
data = [
    ("L12.bP12E05 (antibody, V domains shown, human IgG1) VH: EVQLVQSGAEVKKPGASVKVTCKTSGYIFSGYYMHWVRQVPGQGLEWMGWISPDSGATNYAQKFQGRVTMTRDTSITTSYVELTWLKSDDTAVYYCARGPRYSGTYFDFWGQGTLVTVSS VL: QAVVTQPASVSGSPGQSLTISCTGTSSDIGGFNYVSWYQQHPGKAPKLMIFDVSKRPSGVPNRFSGSKSGNTASLTISGLQAEDEGDYYCSSYTISSAQVFGGGTKLTVL", 0.183),
    ("L12.cP07E10 (antibody, V domains shown, human IgG1) VH: EVQLVESGGGLIQPGGSLRLSCAASGFTVSSNYMSWVRQAPGKGLEWVSVIYSGGSTYYADSVKGRFTISRDNSKNTLYLQMNSLRAEDTAVYYCARDPYGYSSIWDGQGGHWGQGTLVTVSS VL: DVVMTQSPSSLSASVGDRVTITCQASQDISNYLNWYQQKPGKAPKLLIYDASNFATGVPSRFSGTGSGTDFTFTISSLQPEDIATYYCQQYDNLPITFGQGTRLEIK", 0.0026),
]

Now, please, on to the next binder.
Provide one value: measured Kd of L12.bP12H09 (antibody, V domains shown, human IgG1) VH: QVQLVQSGAEVKKPGASVKVSCKASGYIFSGYYTHWVRQAPGQGLEWMGWISPDSGGTNYAQKFQGRVTMTRDTSITTAYVELSGLRSDDTAVYYCARGPRYSGTYFDYWGQGTLVTVSS VL: QSALTQPASVSGSPGQSITISCTGTSSDVGGYNHVSWYQQHPGKAPKLMIYDVSNRPSGVSNRFSGSKSGNTASLTISGLQAEDEADYYCSSYTSSSAQLFGGGTKLTVL 0.155

These data points were gathered from patent US20230357364A1.
